The measurements presented in this section are drawn from PubChem BioAssay (NCI).

Tested on: MDA-MB-468 breast
Test: NCI-60 one-dose screen, 48 h (100 = growth as untreated, 0 = no growth, -100 = all killed)
Settings: 10 µM unless noted
Description: Growth inhibition of the MDA-MB-468 human Breast tumor cell line is measured as a screen for anti-cancer activity. Cells are grown in 96 well plates and exposed to the test compound for 48 hours. Compounds are tested at a single concentration, which is 10^-5 M for most compounds. The reported endpoint is percent growth (GI% or GIPRCNT), where numbers from 0 - 100% represent growth inhibition, and numbers from -100% - 0 represent cell death. […]
About 83,000 compounds went through this panel and 20% of them were active in at least one assay; those are over-represented in the sample as a whole.
measurementLabel: growth (%)
Kindly answer with a numeric value in %, unit omitted.

Consider the reported growth for these compounds:
> print(dat)
                                 compound             system  measurementlabel  unitsofmeasure  experimentalresult
1  CCc1ccccc1NC(=O)c1sc2nc3c(cc2c1N)CCCC3  MDA-MB-468 breast            growth               %                  43
2          O=C(Nc1ccc(I)cc1F)c1cc(F)ccc1O  MDA-MB-468 breast            growth               %               -3.61

Input: Please report the measured growth for "CCc1ccc(CCC(=O)Nc2ncc(Cc3ccccc3)s2)o1"
Output: 28.1

Input: Please list growth recorded for the compound "Nc1ccc(S(=O)(=O)Nc2ncccn2)cc1"
Output: 109

Input: Item "COc1ccc(/C=C/C(=O)c2ccc(Oc3ncnc4ccccc34)cc2)cc1OC" : provide growth
Output: 28.4

Input: Supply measured growth of "CC1(C)OB(O)c2cc(-c3nc4ccc5[nH]ncc5c4c4c3CCCC4)ccc21" in your reply.
Output: 69.5

Input: Quick one: give measured growth for CCN1C(=O)N(CC)C2C1NC(=O)N2/N=C/C=C/c1ccccc1 (configuration not stated)
Output: 19.5

Input: Determine from records and report growth for "N=c1ccc2nc3ccc(N)cc3sc-2c1"
Output: -16.2
